target: E3 ubiquitin-protein ligase XIAP (Homo sapiens); experiment: Binding affinity to the BIR3 domain of X-linked IAP
Sequence (P98170 whole entry, the tested form may be a part): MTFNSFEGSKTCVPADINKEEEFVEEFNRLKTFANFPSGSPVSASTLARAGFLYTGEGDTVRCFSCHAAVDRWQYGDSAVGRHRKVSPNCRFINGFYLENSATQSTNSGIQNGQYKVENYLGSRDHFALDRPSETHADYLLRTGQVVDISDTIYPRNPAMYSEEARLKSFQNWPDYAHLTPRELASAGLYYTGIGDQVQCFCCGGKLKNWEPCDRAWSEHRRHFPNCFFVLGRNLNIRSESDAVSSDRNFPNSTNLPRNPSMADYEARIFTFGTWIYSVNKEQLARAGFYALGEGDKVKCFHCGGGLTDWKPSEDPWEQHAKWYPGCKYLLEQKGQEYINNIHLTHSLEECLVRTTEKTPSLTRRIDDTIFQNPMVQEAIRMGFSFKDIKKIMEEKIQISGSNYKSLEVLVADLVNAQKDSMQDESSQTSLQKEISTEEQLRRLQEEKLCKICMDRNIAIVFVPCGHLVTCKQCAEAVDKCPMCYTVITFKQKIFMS
Square brackets hold non-standard residues; d marks the D form. Peptide text beside a SMILES is read from it. ξ: configuration not given here. Phg = N[C@H](C(=O)O)c1ccccc1; ξPip = O=C(O)C1CCCCN1
Measured property: Kd (µM)

API: value(readout= Kd, system= E3 ubiquitin-protein ligase XIAP (Homo sapiens), query= `CC(C)[C@@H](C(=O)N1CCC[C@H]1C(=O)N[C@@H](Cc1ccccc1)C(=O)N[C@@H](Cc1ccc(O)cc1)C(=O)O)N(C)C` )
8.7

[I] CC(C)[C@H](NC(=O)[C@H](C)N)C(=O)N1CCCCC1C(=O)N[C@@H](Cc1ccccc1)C(=O)N[C@@H](Cc1ccc(O)cc1)C(=O)O (stereo not given in full) (H-AV[ξPip]FY-OH)
[II] CC(C)[C@H](NC(=O)[C@H](C)N)C(=O)N1CCC[C@H]1C(=O)N[C@H](C(=O)N[C@@H](Cc1ccc(O)cc1)C(=O)O)c1ccccc1 (H-AVP[Phg]Y-OH)
Pick the one with the larger Kd: I vs II Respond with the label that goes with your answer.
I
(I: 0.4 µM, II: 0.03 µM)
